- target-of-assay: Type-2 angiotensin II receptor (Homo sapiens, UniProt P50052); also: in other assays of this panel Not Active means under 50% inhibition at 10 µM
- Sequence (P50052 whole entry): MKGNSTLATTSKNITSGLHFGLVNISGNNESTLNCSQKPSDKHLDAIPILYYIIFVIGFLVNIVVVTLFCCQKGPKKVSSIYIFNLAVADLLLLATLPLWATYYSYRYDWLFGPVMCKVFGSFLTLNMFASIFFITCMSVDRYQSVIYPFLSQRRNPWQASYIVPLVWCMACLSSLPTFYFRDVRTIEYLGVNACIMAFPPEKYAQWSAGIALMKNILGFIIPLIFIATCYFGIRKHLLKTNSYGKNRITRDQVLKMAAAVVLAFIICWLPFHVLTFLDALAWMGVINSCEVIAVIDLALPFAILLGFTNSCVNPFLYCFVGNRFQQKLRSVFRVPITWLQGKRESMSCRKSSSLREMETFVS
- Assay type: cell-based
- experimental-conditions: cho-k1
endpoint: IC50

Some solved entries appear below for comparison.
1) CNC1(c2ccccc2Cl)CCCCC1=O (stereo not drawn)	Not Active
2) Clc1ccc(COC(Cn2ccnc2)c2ccc(Cl)cc2Cl)cc1 (stereo not drawn)	Not Active
3) COC(=O)Nc1nc2ccc([S+]([O-])c3ccccc3)cc2[nH]1 (stereo not drawn)	Not Active
4) COc1c2occc2cc2ccc(=O)oc12	Not Active
5) O=C1CN=C(c2ccccc2Cl)c2cc([N+](=O)[O-])ccc2N1	Not Active
6) OC(CCCN1CCCCC1)(c1ccccc1)c1ccccc1	Not Active

The recorded IC50 for entry "CN[C@H]1CC[C@@H](c2ccc(Cl)c(Cl)c2)c2ccccc21" equals Not Active

Lab book: IC50 of CC(c1cc2ccccc2s1)N(O)C(N)=O (stereo not drawn) noted as Not Active

Entry CCC(=O)O[C@]1(C(=O)CCl)[C@@H](C)C[C@H]2[C@@H]3CCC4=CC(=O)C=C[C@]4(C)[C@@]3(F)[C@@H](O)C[C@@]21C [CLOBETASOL PROPIONATE] ; IC50 = Not Active

CN(C)CCOC(c1ccccc1)c1ccccc1 [DIPHENHYDRAMINE] yielded IC50 of Not Active
